- experimental_details: AUC (0 to infinity) in Sprague-Dawley rat at 1 mg/kg, iv measured for 12 hrs by LC-MS/MS analysis
- Assay type: ADME, organism-based
- Set-up: route intravenous, dose 1 mg/kg, time 12 hrs
- assay_conditions: in vivo
property: AUC(0-inf) (µg·h/mL)

1. CC(C)S(=O)(=O)c1ccccc1Nc1nc(Nc2ccc(NC(=O)CCCCCCC(=O)NO)cc2)ncc1Cl :: 0.205

* * *

- system_tested: ALK tyrosine kinase receptor (Homo sapiens, UniProt Q9UM73)
- Sequence (Q9UM73 19-1620 limits assumed): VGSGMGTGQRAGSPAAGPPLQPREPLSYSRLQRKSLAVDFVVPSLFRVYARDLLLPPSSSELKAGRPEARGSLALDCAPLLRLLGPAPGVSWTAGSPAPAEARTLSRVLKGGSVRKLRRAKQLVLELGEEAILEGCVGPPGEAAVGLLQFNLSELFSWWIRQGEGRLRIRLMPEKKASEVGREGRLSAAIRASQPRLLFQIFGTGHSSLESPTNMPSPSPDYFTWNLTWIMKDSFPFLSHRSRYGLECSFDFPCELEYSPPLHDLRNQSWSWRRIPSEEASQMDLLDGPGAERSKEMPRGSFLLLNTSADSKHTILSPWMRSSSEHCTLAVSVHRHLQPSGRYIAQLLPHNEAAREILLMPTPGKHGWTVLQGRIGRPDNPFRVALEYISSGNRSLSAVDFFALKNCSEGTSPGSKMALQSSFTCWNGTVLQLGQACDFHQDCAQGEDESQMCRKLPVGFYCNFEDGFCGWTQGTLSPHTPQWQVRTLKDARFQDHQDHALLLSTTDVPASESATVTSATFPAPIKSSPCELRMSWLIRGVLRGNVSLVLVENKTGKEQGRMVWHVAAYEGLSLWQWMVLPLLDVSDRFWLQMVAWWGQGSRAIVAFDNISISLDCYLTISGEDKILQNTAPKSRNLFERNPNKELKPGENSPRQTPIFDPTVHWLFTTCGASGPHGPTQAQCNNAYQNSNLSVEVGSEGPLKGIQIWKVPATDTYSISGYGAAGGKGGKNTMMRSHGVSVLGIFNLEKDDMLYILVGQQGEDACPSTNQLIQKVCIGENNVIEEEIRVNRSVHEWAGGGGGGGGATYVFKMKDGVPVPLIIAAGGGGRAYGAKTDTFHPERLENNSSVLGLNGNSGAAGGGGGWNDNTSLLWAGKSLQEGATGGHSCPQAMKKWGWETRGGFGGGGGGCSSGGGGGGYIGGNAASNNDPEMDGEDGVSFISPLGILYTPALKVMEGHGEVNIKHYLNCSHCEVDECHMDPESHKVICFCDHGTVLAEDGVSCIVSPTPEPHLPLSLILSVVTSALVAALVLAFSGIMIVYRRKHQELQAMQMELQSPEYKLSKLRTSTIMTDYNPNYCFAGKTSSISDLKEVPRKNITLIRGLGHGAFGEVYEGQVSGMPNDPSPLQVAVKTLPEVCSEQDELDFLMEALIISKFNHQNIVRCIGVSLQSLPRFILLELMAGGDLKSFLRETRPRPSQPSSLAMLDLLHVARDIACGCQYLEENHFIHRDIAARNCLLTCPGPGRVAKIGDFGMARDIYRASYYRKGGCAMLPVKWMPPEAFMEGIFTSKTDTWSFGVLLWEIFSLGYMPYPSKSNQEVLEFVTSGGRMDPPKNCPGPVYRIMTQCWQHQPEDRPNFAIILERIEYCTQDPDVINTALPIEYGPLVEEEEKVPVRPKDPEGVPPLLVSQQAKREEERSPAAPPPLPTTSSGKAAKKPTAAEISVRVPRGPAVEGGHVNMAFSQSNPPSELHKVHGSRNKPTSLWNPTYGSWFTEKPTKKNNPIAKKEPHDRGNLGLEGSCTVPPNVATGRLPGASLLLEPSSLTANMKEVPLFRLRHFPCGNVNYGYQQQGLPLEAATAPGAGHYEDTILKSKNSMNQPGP
- experimental_details: Inhibition of ALK (unknown origin) at 100 nM preincubated for 10 mins followed by addition of substrate and ATP for 25 mins by caliper EZ reader method
- assay_conditions: time 35.0 min
property: inhibition (%)

1. CC(C)S(=O)(=O)c1ccccc1Nc1nc(Nc2ccc(NC(=O)CCCCCC(=O)NO)cc2)ncc1Cl :: 98.8
2. Cc1ccc(Nc2ncc(Cl)c(Nc3ccccc3S(=O)(=O)C(C)C)n2)cc1NC(=O)CCCCC(=O)NO :: 98.5
3. CC(C)S(=O)(=O)c1ccccc1Nc1nc(Nc2cccc(NC(=O)CCCCC(=O)NO)c2)ncc1Cl :: 98
4. COc1cc(Nc2ncc(Cl)c(Nc3ccccc3S(=O)(=O)C(C)C)n2)ccc1C(=O)NCCCCCC(=O)NO :: 101
